Every entry's value here was drawn from paper PMC9454456.

# testProtocol: in vivo
# Parameters: species or system mice
# conditionNotes: mouse, iv, 3.4 MBq, total radioactivity, Biodistribution, Fat

{"molecule": "CC(=O)NC(CCCCNC(=O)CN1CCN(CC(=O)O)CCN(CC(=O)O)CCN(CC(=O)O)CC1)C(=O)N1CCCC1C(=O)N(C)C(CCCNC(=N)N)C(=O)NC(CCCNC(=N)N)C(=O)N1CCCC1C(=O)NC(Cc1ccc(O)cc1)C(=O)NC(C(=O)NC(CC(C)C)C(=O)O)C(C)(C)C (stereo not shown) [^68Ga-DOTA-NT-20.3, metal not drawn]", "tissue uptake at 5 min": "1.42 %ID/g"}

----------
# testProtocol: in vivo
# Design: species or system mice
# conditionNotes: mouse, iv, 3.4 MBq, total radioactivity, Biodistribution, Pancreas

{"compound": "CC(=O)NC(CCCCNC(=O)CN1CCN(CC(=O)O)CCN(CC(=O)O)CCN(CC(=O)O)CC1)C(=O)N1CCCC1C(=O)N(C)C(CCCNC(=N)N)C(=O)NC(CCCNC(=N)N)C(=O)N1CCCC1C(=O)NC(Cc1ccc(O)cc1)C(=O)NC(C(=O)NC(CC(C)C)C(=O)O)C(C)(C)C (stereo not shown) [^68Ga-DOTA-NT-20.3, metal not drawn]", "tissue uptake at 1 h [%ID/g]": 1.05}
